# Assay procedure: Tissue PK profile in rat (liver and plasma drug level)
# Type: in vivo
# Assay conditions: liver/plasma, 10 mg/kg, 4 hours after PO dosing at 10 mpk, vehicle 0.5% MC, read-out: liver/plasma ratio
API: label(entry) gives Satisfied if the entry's Kp at 4 h is strictly smaller than 70; on equality or larger values it gives Not satisfied.

1. O=C(O)CNC(=O)c1c(O)c2c(n(Cc3cnc(C(F)(F)F)cn3)c1=O)COC2 : Not satisfied
2. O=C(O)CNC(=O)c1c(O)c2c(n(Cc3nc(C(F)(F)F)cs3)c1=O)COC2 : Not satisfied
3. O=C(O)CNC(=O)c1c(O)c2c(n(Cc3cnc(C(F)(F)F)s3)c1=O)COC2 : Not satisfied
4. O=C(O)CNC(=O)c1c(O)c2c(n(Cc3cc(F)c(F)cc3F)c1=O)COC2 : Not satisfied
5. O=C(O)CNC(=O)c1c(O)c2c(n(Cc3ccc(Cl)cc3)c1=O)COC2 : Satisfied
6. N#Cc1ccc(Cn2c3c(c(O)c(C(=O)NCC(=O)O)c2=O)COC3)cc1 : Satisfied

Query :: # check: Kp at 4 h < 70 for Cc1cc(Cl)ccc1Cn1c2c(c(O)c(C(=O)NCC(=O)O)c1=O)COC2
Result :: Satisfied

Values were extracted from patent US20170226120A1.
